Test: NCI Yeast Anticancer Drug Screen. Data for the rad50 strain (AID 155);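 also: 0% = growth of vehicle-only cultures of the same strain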
Details: S. cerevisiae rad50 strain growth inhibition; at 50.0 µM
The panel holds about 79,000 compounds, 15% with a hit somewhere; the sample as a whole holds those more often. Calls of active or inactive are those of the source. Rule as the data show it: active = growth inhibition above about 70%; inactive = the rest.
Would you mind answering with one of these outcomes? y for active, n for inactive

(Q) I'd appreciate the recorded outcome for `O=S(=O)(c1cnccc1N1CCN(CCO)CC1)N1CCCC1` from this test.
(A) n

(Q) I'd appreciate the recorded outcome for `CCCn1cc2c(=O)[nH]c(SC)nc2n1` from this test.
(A) n

(Q) I'd appreciate the recorded outcome for CCOC(=O)C(C)(C)C(O)C(C)C (configuration not stated) from this test.
(A) n

(Q) I'd appreciate the recorded outcome for COc1cc(C(C)S(=O)(=O)c2ccc(C)cc2)ccc1O (configuration not stated) from this test.
(A) n

(Q) I'd appreciate the recorded outcome for `COc1cc(C)c2cccc(C)c2n1` from this test.
(A) n

(Q) I'd appreciate the recorded outcome for COc1ccc(C2(C)OCCC(C)O2)cc1 (configuration not stated) from this test.
(A) n

(Q) I'd appreciate the recorded outcome for C/C=C(\C)C(=O)OC1C2C(C)=CC(=O)C(O)C2(C)C2C3(O)OCC24C1OC(=O)C(OC(C)=O)C4C(C)C3O (configuration not stated) from this test.
(A) y

(Q) I'd appreciate the recorded outcome for `CC(C)(C)c1cc[n+](C[n+]2ccc(C(C)(C)C)cc2)cc1` from this test.
(A) n

(Q) I'd appreciate the recorded outcome for `CCN(CC)Cc1cc(C(C)(C)CC)cc(-c2ccccc2)c1O` from this test.
(A) n

(Q) I'd appreciate the recorded outcome for `CN(C)c1ccc(/C=c2\sc3nnc(Cc4ccccc4)n3c2=O)cc1` from this test.
(A) n

(Q) I'd appreciate the recorded outcome for CCCCCCCC(=O)NC(O)C(Cl)(Cl)C(C)Cl (configuration not stated) from this test.
(A) n

(Q) I'd appreciate the recorded outcome for CC1CC=[N+]([O-])C1(C)C (configuration not stated) from this test.
(A) n

----------
Assay: NCI Yeast Anticancer Drug Screen. Data for the sgs1 mgt1 strain (AID 161);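 also: 0% = growth of cultures given vehicle only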
Details: S. cerevisiae sgs1 mgt1 strain, at 50.0 µM, active compounds read high
About 79,000 compounds went through this panel and 15% of them were active in at least one assay; those are over-represented in the sample as a whole.
What growth inhibition was measured for each of the following?
Enter your answer as a number in %; do not include the unit.

growth inhibition reading for `CN(C)CCNc1cccc2oc3ccc(O)cc3c(=O)c12` : 9.55

growth inhibition reading for O=C1C2C3C=CC(O3)C2C(=O)N1N=C1CCCCC1 (stereo unspecified) : 14.2

growth inhibition reading for `Nc1ccc2ccccc2c1Cl` : -11.4

growth inhibition reading for `CC1=NS(=O)(=O)c2ccccc2N1` : 4.75

growth inhibition reading for COc1ccc(CCN=C2CCC(C(=O)NCCc3ccc(OC)c(OC)c3)N2)cc1OC (stereo unspecified) : 2.6

growth inhibition reading for `COc1ccc([N+](=O)[O-])c2c(NCCC[N+](C)(C)[O-])c3ccccc3nc12` : 3.05

growth inhibition reading for `CNC(=S)N(C1CCCCC1)C1CCCCC1` : -2.2

growth inhibition reading for `O=C(O)CSc1nc2cc(Cl)c(Cl)cc2[nH]1` : 1.35

growth inhibition reading for `Nc1ccccc1C(=O)Nc1ccc(Cl)cc1C(=O)O` : -14.2

growth inhibition reading for COc1ccc([N+](=O)[O-])c2c1CONC2c1c(CO)cnc(C)c1O (stereo unspecified) : 27.2

growth inhibition reading for COC(=O)c1ccccc1C1CN=NC12Cc1c(ccc3c1CCC3)C2=O (stereo unspecified) : -15.1

growth inhibition reading for Cc1ccc(S(=O)(=O)NC(Cc2ccccc2)C(=O)NCc2cccnc2)cc1 (stereo unspecified) : 5.2

growth inhibition reading for `O=C(O)c1cccc(N=Nc2ccccc2)c1O` : 4.65

growth inhibition reading for `NNC(=O)c1cccc(C(=O)NN)n1` : 8.55

growth inhibition reading for `Cc1cc(C(=O)O)ccc1C(=O)O` : -1.95

growth inhibition reading for COc1ccc2c3c([nH]c2c1)C(C)N(S(=O)(=O)c1ccccc1)CC3 (stereo unspecified) : -2.65

growth inhibition reading for CC1=N[C@](C)(C2CC3C=CC2C3=O)COC1=O (stereo partly specified) : -27

growth inhibition reading for CCSCCC(C)(N)C(=O)O (stereo unspecified) : -12.3

growth inhibition reading for `C=CCOc1ccc(Cl)cc1Br` : -2.65

growth inhibition reading for Cc1cc2nc(C(C)C(=O)c3ccc(Cl)cc3)c(=O)[nH]c2cc1C (stereo unspecified) : -0.9

growth inhibition reading for `CCC(CO)(CO)[N+](=O)[O-]` : -20.5

growth inhibition reading for `O=S(=O)(Cl)c1ccc(I)cc1` : -12.3

growth inhibition reading for `N#C/C(C(=N)c1ccccc1)=C1\SS/C(=C(\C#N)C(=N)c2ccccc2)S1` : 7.6

growth inhibition reading for `COc1ccc(C(=O)N2CCCCC2)cc1` : -3.8

growth inhibition reading for `COC(=O)[C@@H]1CCC(/C(C#N)=C2/CC[C@@H](C(=O)OC)N2)=N1` : 1.2

growth inhibition reading for `Brc1ccccc2cc(-c3ccccc3)nc1-2` : 34.5
